Where do the numbers come from? From PubChem BioAssay (NCI).

- Test system: UACC-62 melanoma
- Procedure summary: NCI-60 one-dose screen, 48 h
- Test conditions: 10 µM unless noted
About 83,000 compounds went through this panel and 20% of them were active in at least one assay; those are over-represented in the sample as a whole. The source made the active and inactive calls. Rule for the calls: active = growth percent below 10; inactive = the rest.
Return exactly one item of active, inactive

Use the examples below as a reference point.
Incoming: Which outcome was entered for the compound O=C(O)CCNS(=O)(=O)c1ccc(-c2ccccc2)cc1 in this test?
Outgoing: inactive

Incoming: Hi, do you know how C/C(=C\CCc1ccoc1)CC/C=C(\C)CCCN1CCOCC1 came out in this test?
Outgoing: inactive

Incoming: Called result for NC(=O)c1cc(Br)cc(Br)c1NS(=O)(=O)c1ccccc1
Outgoing: inactive

Incoming: // param item: CC(=O)OC1Oc2cc(C)c(C)cc2-c2oc(=O)c(-c3ccccc3)cc21 (stereo unspecified) ; yields the recorded call
Outgoing: inactive

Incoming: I'd appreciate the recorded outcome for CC(=O)N1N=C(c2ccc(Nc3ccnc4cc(Cl)ccc34)cc2)CC1c1ccc(Cl)cc1 (stereo unspecified) from this test.
Outgoing: inactive

Incoming: How was Clc1ccc2nc(CI)c(CI)nc2c1 classified in this test?
Outgoing: inactive

Incoming: GET /call?item= CCNCCCn1c2c(c3ccc(F)cc3c1=O)C(=O)c1cc(OC)cnc1-2 returns the recorded outcome of this test.
Outgoing: active

Incoming: GET /call?item= O=C(Nc1ccc(Cl)cc1)Nc1ccccc1CNc1nc(Nc2ccc(OCCN3CCCC3)cc2)ncc1Cl returns the recorded outcome of this test.
Outgoing: inactive

Continuing:
Incoming: Give the logged outcome of this assay for the following compound: CC(=O)O[C@H]1CC[C@@]2(C)C(=CC[C@@H]3[C@@H]2CC[C@]2(C)C(c4cccnc4)=CC[C@@H]32)C1
Outgoing: inactive

Incoming: # fetch the recorded call for NS(=O)(=O)c1ccc(-n2ncc3c(SCc4ccccc4)ncnc32)cc1 here
Outgoing: inactive

Incoming: // return assay outcome for COC(=O)[C@H](Cc1cn(C)cn1)NC(=O)[C@H](Cc1ccccc1)NC(=O)Nc1cc(C(F)(F)F)cc(C(F)(F)F)c1
Outgoing: active

Incoming: Outcome? COc1ccc2c(c1)C(=Nc1cc(OC)c(OC)c(OC)c1)C(=O)N2
Outgoing: inactive

Incoming: Just curious, what result did Nc1ccc2c(c1)Cc1cc(Cl)c(Cl)cc1-2 get here?
Outgoing: inactive

Incoming: Returns: the outcome recorded for CC(=O)Nc1c(Cl)cc2c(c1Cl)Cc1cc([N+](=O)[O-])ccc1-2 in this assay.
Outgoing: inactive

Incoming: For COc1ccc(/C=C2/SC(=Nc3c(C)nn(-c4ccccc4)c3N)NC2=O)cc1 , what call appears in the results of this test?
Outgoing: inactive
